Below, each entry is listed alongside its reported pIC50.
Test: Antagonist activity at AR in mouse SC3 cells assessed as inhibition of DHT-induced cell proliferation after 3 days by CCK8 assay
Value format note: pIC50 is -log10 of concentration (mol/L); just state the number.

CN(C)c1ccc(C(=O)Nc2cccc(Oc3ccc(O)cc3)c2)cc1    5.13
COc1cccc(C(=O)Nc2cc(Cl)c(Oc3ccc(O)cc3)c(Cl)c2)c1    6.32

We next turn to a different molecule, shown below.
Looking up `COc1cccc(C(=O)N(C)c2ccc(Oc3ccc(O)cc3)c(C)c2)c1` , I found its pIC50 recorded as 5.12

====

Assay: Antagonist activity at AR in mouse SC3 cells assessed as inhibition of DHT-induced cell proliferation after 3 days by CCK8 assay
Listed molecules paired with reported IC50

Please fill in: IC50 reported for `COc1cccc(C(=O)Nc2cccc(Oc3cccc(O)c3)c2)c1` = > 10 µM

What the record says about `COc1cccc(C(=O)Nc2cc(F)c(Oc3ccc(O)cc3)c(F)c2)c1` : IC50 is 0.51 µM

Sure, the documented IC50 for `COc1ccc(C(=O)Nc2cccc(Oc3ccc(O)cc3)c2C)cc1` is > 10 µM

====

Test: Antagonist activity at AR in mouse SC3 cells assessed as inhibition of DHT-induced cell proliferation after 3 days by CCK8 assay
The entries below come with measured IC50 values attached.
# output: bare number, implied unit µM

Answered examples (8):
COc1cccc(C(=O)Nc2ccc(Oc3ccc(O)cc3)cc2C)c1    3
COc1ccccc1C(=O)Nc1ccc(C)c(Oc2ccc(O)cc2)c1    5.3
CN(C)c1ccccc1C(=O)Nc1cccc(Oc2ccc(O)cc2)c1    6.3
COc1cccc(C(=O)Nc2ccc(Oc3ccc(O)cc3)cc2OC)c1    3.4
COc1cccc(C(=O)Nc2ccc(Oc3ccc(O)cc3)c(Br)c2)c1    5.7
COc1cccc(C(=O)Nc2ccc(Oc3ccc(O)cc3)cc2F)c1    0.65
COc1cccc(C(=O)Nc2ccc(Oc3ccc(O)cc3)c(F)c2)c1    0.4
COc1cccc(C(=O)Nc2ccc(Oc3ccc(O)cc3)c(F)c2F)c1    0.53

Please look at the following compound next.
Lookup result for `COc1cccc(C(=O)Nc2ccc(Oc3ccc(O)cc3)c(C(F)(F)F)c2)c1` ; measured IC50: 4.3

====

IC50 overview
Assay: Antagonist activity at AR in mouse SC3 cells assessed as inhibition of DHT-induced cell proliferation after 3 days by CCK8 assay

Solved entries:
CN(C)c1ccc(C(=O)Nc2ccc(Oc3cccc(O)c3)cc2)cc1    3.2 µM
COc1ccc(C(=O)Nc2ccc(C)c(Oc3ccc(O)cc3)c2)cc1    > 10 µM
COc1cccc(C(=O)Nc2ccc(Oc3ccc(O)cc3)c(Cl)c2)c1    0.48 µM
COc1cccc(C(=O)Nc2ccc(Oc3cccc(O)c3)cc2)c1    > 10 µM

Entry `COc1ccc(C(=O)Nc2cccc(Oc3cccc(O)c3)c2)cc1` — recorded IC50 = > 10 µM

Measured IC50 of `COc1ccccc1C(=O)Nc1cccc(Oc2ccc(O)cc2)c1` : > 10 µM

Sure, the documented IC50 for `COc1ccc(C(=O)Nc2cc(Oc3ccc(O)cc3)ccc2C)cc1` is > 10 µM

Briefly, IC50 measured for `COc1cccc(C(=O)Nc2ccc(Oc3ccc(O)cc3)cc2Cl)c1` : 1.7 µM

Measured values drawn from BindingDB's records for doi:10.1016/j.bmc.2018.09.008 for this set.
